- Tested on: ISC-enriched organoids
- testSummary: Primary screen, 384-well 2.5-D organoid differentiation (ENR+CD, 6 days): basal lysozyme secretion (LYZ.NS)
- Format: cell-based, murine
- conditionSet: primary screen, dose 10.00 uM, standard z score of FC
Reported Z.LYZ.NS values for a set of molecules
Write no unit; give the number alone.

Reference set (3 entries):
CC(C)N(CC[C@H](c1ccccc1)c1cc(CO)ccc1O)C(C)C [5-hydroxymethyl Tolterodine (PNU 200577, 5-HMT, 5-HM)] | 0.293
C/C(=C\C(=O)Nc1ccccc1C(=O)O)c1ccc2ccccc2c1 | −0.536
O=C(c1ccc(F)cc1)N1CCC[C@H](c2nc(-c3ccc(F)cc3)no2)C1 | −0.311

So what's the measured Z.LYZ.NS for this one? C[C@H]1COC2(CCN(c3nc(=O)c4cc(C(F)(F)F)cc([N+](=O)[O-])c4s3)CC2)O1 (racemic) [BTZ043 Racemate]
0.870

====

Z.CTG values by entry
- System: ISC-enriched organoids
- testSummary: Primary screen, 384-well 2.5-D organoid differentiation (ENR+CD, 6 days, Target Selective Inhibitor Library, vs whole-plate median): ATP (CellTiter-Glo 3D, CTG)
- conditionSet: Dose 10.00 uM; standard z score of FC
Counter-ions that a name gives are not always drawn.
Quick one: just the number, no unit, thanks!

CCNC(=O)[C@H]1O[C@@H](n2cnc3c(N)nc(NCCc4ccc(CCC(=O)O)cc4)nc32)[C@H](O)[C@@H]1O [CGS 21680 HCl] | −3.328
C=C1C(=O)O[C@@H]2/C=C(\C)CC/C=C(\C)CC[C@@H]12 [Costunolide] | 0.019
O=C(O)/C=C/c1ccc(Cn2ccnc2)cc1 [Ozagrel HCl] | 0.547
NC(=O)N1c2ccccc2CC(=O)c2ccccc21 [Oxcarbazepine] | −0.359
Cn1cc(C2=C(c3cn(C4CCN(Cc5ccccn5)CC4)c4ccccc34)C(=O)NC2=O)c2ccccc21 [Enzastaurin (LY317615)] | −0.194
C[C@H](CS)C(=O)N1CCC[C@H]1C(=O)O [Captopril] | 0.255
Nc1nc(CC(=O)Nc2ccc(CCNC[C@H](O)c3ccccc3)cc2)cs1 [Mirabegron] | −0.123
CCOc1ccc(Cc2cc([C@@H]3O[C@H](CO)[C@@H](O)[C@H](O)[C@H]3O)ccc2Cl)cc1 [Dapagliflozin] | 0.719
OCCn1cc(-c2cnc3nnn(Cc4ccc5ncccc5c4)c3n2)cn1 [PF-04217903] | 0.276

Field: next compound
So what's the measured Z.CTG for this one? C=CCc1cccc(/C=N/NC(=O)CN2CCN(Cc3ccccc3)CC2)c1O [PAC-1]
0.004

====

- Test system: ISC-enriched organoids
- testSummary: Primary screen, 384-well 2.5-D organoid differentiation (ENR+CD, 6 days): basal lysozyme secretion (LYZ.NS)
- Type: cell-based, murine
- conditionSet: Dose 0.08 uM; primary screen, standard z score
- Text: High-throughput screening.
Classify by measured Z.LYZ.NS: Yes if it is equal to or exceeds -0.05, No if it is smaller.

Previously resolved entries follow.
Cc1cnc(NC(=O)Nc2cc(Br)c(C)cc2OC[C@@H]2CNCCO2)cn1 | Yes
Cl.Cl.O=S(=O)(NCCNC/C=C/c1ccc(Br)cc1)c1cccc2cnccc12 [H 89 2HCl] | Yes
CC(C)c1noc(N2CCC(COc3ccc(-c4ccc(S(C)(=O)=O)cc4)nc3)CC2)n1 | Yes
COc1cc(-n2c(=S)[nH]c3ccccc3c2=O)c(Cl)cc1Cl | Yes

Reported Z.LYZ.NS reaches at least -0.05 for Cc1cccc(CC(=O)N2CCc3c2ccc(-c2cn(C)c4ncnc(N)c24)c3F)n1 ?
No

Origin of values: patent US20230398130A1
